test system: 699152-130-R-J1-PDC complex spheroid viability; assay: Anticancer human tumor 699152-130-R-J1-PDC patient-derived pancreatic carcinoma cell line growth inhibition [POLQ]; settings: second compound 0.1 µM; first compound 0.316 µM; stronger effect = lower value;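 note: spheroids exposed to agents for 7 days before viability reading; percent of DMSO vehicle control viability so 100% = vehicle and 0% = no viable signal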
Assign viability, T/C to each entry below.
Give bare numbers, in %.

// below: answered compounds
compound	assay metric	unit descriptor	recorded result
CCc1cc2c(N3CCc4c(cc(Cn5ccnc5)cc4-c4cn(C)nc4C(F)(F)F)C3=O)cc(C)nc2c(OC)n1 + Cc1cccc(N(C)C(=O)C2C(O)CCN2c2nc(C)cc(C(F)(F)F)c2C#N)c1	viability, T/C	%	95.4
CCCS(=O)(=O)Nc1ccc(F)c(C(=O)c2c[nH]c3ncc(-c4ccc(Cl)cc4)cc23)c1F + COC1C(OC(N)=O)C(O)C(Oc2ccc3c(O)c(NC(=O)c4ccc(O)c(CC=C(C)C)c4)c(=O)oc3c2C)OC1(C)C	viability, T/C	%	126

// moving on: another record for viability, T/C
Task item: // map COc1ccc([C@@H](O)c2cc(-c3ncnc4cc(N5CCOCC5)ccc34)c(F)cc2Cl)nn1 + COC1C(OC(N)=O)C(O)C(Oc2ccc3c(O)c(NC(=O)c4ccc(O)c(CC=C(C)C)c4)c(=O)oc3c2C)OC1(C)C to recorded viability, T/C (system: 699152-130-R-J1-PDC complex spheroid viability);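 note: spheroids exposed to agents for 7 days before viability reading; percent of DMSO vehicle control viability so 100% = vehicle and 0% = no viable signal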
Reply: 87

The measured values listed here are drawn from PubChem BioAssay AID1963835.
